FYI, the data here is from BigSolDB 2.1.

- test-parameters: in n-butanol, 283.15 K
measurement-kind: solubility (mole fraction)

| compound | reported-measurement |
| --- | --- |
| CC(C)(C)C(=O)C(Oc1ccc(Cl)cc1)n1ccnc1 (stereo unspecified) | 0.0957 |

###

- test-parameters: in n-heptanol, 308.15 K

| compound | solubility (mole fraction) |
| --- | --- |
| CC(C)(C)C(=O)C(Oc1ccc(Cl)cc1)n1ccnc1 (stereo unspecified) | 0.18 |

###

- test-parameters: in n-hexanol, 283.15 K

| compound | solubility (mole fraction) |
| --- | --- |
| CC(C)(C)C(=O)C(Oc1ccc(Cl)cc1)n1ccnc1 (stereo unspecified) | 0.0858 |
